# Organism: Rattus norvegicus
# test.name: In vitro inhibitory effect on D-Galactosamine induced cytotoxicity in primary cultured rat hepatocytes at 30 ug/mL
# Assay type: functional
# experimental.context: Hepatocyte
What inhibition at 30 µg/mL was measured for each of the following?
Kindly provide the numeric value in % only, without the unit symbol.

Prompt: Given CO[C@@H]1C=C2C3CC(C)(C)CC[C@]3(CO)[C@H](O)C[C@@]2(C)[C@]2(C)CCC3[C@](C)(CC[C@H](O[C@@H]4O[C@H](C)[C@H](O)[C@H](O[C@@H]5O[C@H](CO)[C@@H](O)[C@H](O)[C@H]5O[C@@H]5O[C@H](CO)[C@@H](O)[C@H](O)[C@H]5O)[C@H]4O)[C@@]3(C)CO)C12 (some centres undefined) , state its recorded inhibition at 30 µg/mL.
Response: -2.9

Prompt: Field request: inhibition at 30 µg/mL | item: C[C@H]1O[C@@H](OC2CC[C@@]3(C)C(CC[C@]4(C)C3C=C[C@]35OC[C@@]6(CCC(C)(C)CC63)[C@@H](O)C[C@]54C)C2(C)C)[C@H](O)[C@@H](O[C@@H]2O[C@H](CO)[C@@H](O)[C@H](O)[C@H]2O)[C@H]1O (some centres undefined)
Response: -30.6

Prompt: Endpoint output: inhibition at 30 µg/mL of C[C@H]1O[C@@H](OC2CC[C@@]3(C)C(CC[C@]4(C)C3C=CC3=C5CC(C)(C)CC[C@]5(CO)[C@H](O)C[C@]34C)[C@]2(C)CO)[C@H](O)[C@@H](O[C@@H]2O[C@H](CO)[C@@H](O)[C@H](O)[C@H]2O)[C@H]1O (some centres undefined) . Value?
Response: 8.4

Prompt: Looking for the measured inhibition at 30 µg/mL of C[C@@H]1O[C@@H](O[C@@H]2[C@H](O)[C@@H](O)[C@H](O[C@H]3CC[C@@]4(C)C(CC[C@]5(C)C4C(=O)C=C4C6CC(C)(C)CC[C@]6(CO)[C@@H](O)C[C@]45C)C3(C)C)O[C@@H]2CO[C@@H]2O[C@H](CO)[C@@H](O)[C@H](O)[C@H]2O)[C@H](O)[C@H](O)[C@H]1O (some centres undefined) [BUPLEUROSIDE VII] , can you help?
Response: 3.2

###

# Species: Rattus norvegicus
# test.name: In vitro inhibitory effect on D-Galactosamine induced cytotoxicity in primary cultured rat hepatocytes at 0.3 ug/mL
# Type: functional
# experimental.context: Hepatocyte
Task for the reader: assign each of the following compounds its reported inhibition at 0.3 µg/mL.
# number only, unit % dropped from output

Prompt: Look up inhibition at 0.3 µg/mL for this compound: CC1(C)CC[C@@]2(CO)C(C1)C1=CC(=O)C3[C@@]4(C)CC[C@H](O)[C@@](C)(CO)C4CC[C@@]3(C)[C@]1(C)C[C@@H]2O (stereo partly drawn)
Response: 0.6

Prompt: What measured inhibition at 0.3 µg/mL goes with C[C@H]1O[C@@H](OC2CC[C@@]3(C)C(CC[C@]4(C)C3C=CC3=C5CC(C)(C)CC[C@]5(CO)[C@@H](O)C[C@]34C)[C@]2(C)CO)[C@H](O)[C@@H](O[C@@H]2O[C@H](CO)[C@@H](O)[C@H](O)[C@H]2O)[C@H]1O (stereo partly drawn) ?
Response: 0.1

Prompt: Form field: reported inhibition at 0.3 µg/mL of C[C@@H]1O[C@@H](O[C@@H]2[C@H](O)[C@@H](O)[C@H](O[C@H]3CC[C@@]4(C)C(CC[C@]5(C)C4C=C[C@]46OC[C@@]7(CCC(C)(C)CC74)[C@@H](O)C[C@]65C)C3(C)C)O[C@@H]2CO[C@@H]2O[C@H](CO)[C@@H](O)[C@H](O)[C@H]2O)[C@H](O)[C@H](O)[C@H]1O (stereo partly drawn)
Response: -1.5

###

# Species: Rattus norvegicus
# test.name: In vitro inhibitory effect on D-Galactosamine induced cytotoxicity in primary cultured rat hepatocytes at 30 ug/mL
# Type: functional
# experimental.context: Hepatocyte
Assign inhibition at 30 µg/mL to each entry below.
// return numeric value only (unit: %, not printed)

Prompt: Field request: inhibition at 30 µg/mL | item: CO[C@@H]1C=C2C3CC(C)(C)CC[C@]3(CO)[C@@H](O)C[C@@]2(C)[C@]2(C)CCC3C(C)(C)[C@@H](O[C@@H]4O[C@H](C)[C@H](O)[C@H](O[C@@H]5O[C@H](CO)[C@@H](O)[C@H](O)[C@H]5O)[C@H]4O)CC[C@]3(C)C12 (stereo partly drawn)
Response: 75

Prompt: Give the measured inhibition at 30 µg/mL of CC1(C)CC[C@@]2(CO)C(C1)C1=CC(=O)C3[C@@]4(C)CC[C@H](O)[C@@](C)(CO)C4CC[C@@]3(C)[C@]1(C)C[C@@H]2O (stereo partly drawn) .
Response: 4.9

Prompt: Query: inhibition at 30 µg/mL; subject: CO[C@@H]1C=C2C3CC(C)(C)CC[C@]3(CO)[C@@H](O)C[C@@]2(C)[C@]2(C)CCC3[C@](C)(CCC(O[C@@H]4O[C@H](CO[C@@H]5O[C@H](CO)[C@@H](O)[C@H](O)[C@H]5O)[C@H](O[C@@H]5O[C@@H](C)[C@H](O)[C@@H](O)[C@H]5O)[C@H](O)[C@H]4O)[C@@]3(C)CO)C12 (stereo partly drawn)
Response: 4.8

Prompt: Data request, read-out inhibition at 30 µg/mL, for C[C@@H]1O[C@@H](O[C@@H]2[C@H](O)[C@@H](O)[C@H](O[C@H]3CC[C@@]4(C)C(CC[C@]5(C)C4CC=C4C6CC(C)(C)CC[C@]6(CO)CC[C@]45C)C3(C)C)O[C@@H]2CO[C@@H]2O[C@H](CO)[C@@H](O)[C@H](O)[C@H]2O)[C@H](O)[C@H](O)[C@H]1O (stereo partly drawn) [BUPLEUROSIDE XI]
Response: -0.3

Prompt: Requested field: inhibition at 30 µg/mL. Item: C[C@H]1O[C@@H](O[C@H]2CC[C@@]3(C)C(CC[C@]4(C)C3C(=O)C=C3C5CC(C)(C)CC[C@]5(CO)[C@@H](O)C[C@]34C)[C@]2(C)CO)[C@H](O)[C@@H](O[C@@H]2O[C@H](CO)[C@@H](O)[C@H](O)[C@H]2O)[C@H]1O (stereo partly drawn)
Response: 90.9

Prompt: Query: inhibition at 30 µg/mL; subject: C[C@H]1O[C@@H](O[C@H]2CC[C@@]3(C)C(CC[C@]4(C)C3[C@H](O)CC3C5=CC(C)(C)CC[C@]5(CO)[C@@H](O)C[C@]34C)[C@]2(C)CO)[C@H](O)[C@@H](O[C@@H]2O[C@H](CO)[C@@H](O)[C@H](O)[C@H]2O)[C@H]1O (stereo partly drawn)
Response: 64.7

Prompt: Query (compound): CO[C@@H]1C=C2C3CC(C)(C)CC[C@]3(CO)[C@@H](O)C[C@@]2(C)[C@]2(C)CCC3[C@](C)(CCC(O[C@@H]4O[C@H](C)[C@H](O)[C@H](O[C@@H]5O[C@H](CO)[C@@H](O)[C@H](O)[C@H]5O)[C@H]4O)[C@@]3(C)CO)C12 (stereo partly drawn) ; field requested: inhibition at 30 µg/mL
Response: 72.1

Prompt: Which inhibition at 30 µg/mL value belongs to CO[C@@H]1C=C2C3CC(C)(C)CC[C@]3(CO)[C@@H](O)C[C@@]2(C)[C@]2(C)CCC3C(C)(C)C(O[C@@H]4O[C@H](CO[C@@H]5O[C@H](CO)[C@@H](O)[C@H](O)[C@H]5O)[C@H](O[C@@H]5O[C@@H](C)[C@H](O)[C@@H](O)[C@H]5O)[C@H](O)[C@H]4O)CC[C@]3(C)[C@@H]12 (stereo partly drawn) ?
Response: 8.1

###

Would you mind telling me the reported inhibition at 0.3 µg/mL of each entry?
# Organism: Rattus norvegicus
# test.name: In vitro inhibitory effect on D-Galactosamine induced cytotoxicity in primary cultured rat hepatocytes at 0.3 ug/mL
# Type: functional
# experimental.context: Hepatocyte
The reply should be a number in %, with the unit left off.

Prompt: inhibition at 0.3 µg/mL lookup needed for CO[C@@H]1C=C2C3CC(C)(C)CC[C@]3(CO)[C@@H](O)C[C@@]2(C)[C@]2(C)CCC3C(C)(C)[C@@H](O[C@@H]4O[C@H](C)[C@H](O)[C@H](O[C@@H]5O[C@H](CO)[C@@H](O)[C@H](O)[C@H]5O)[C@H]4O)CC[C@]3(C)C12 (some centres undefined) , thanks.
Response: 37.2

Prompt: Looking for the measured inhibition at 0.3 µg/mL of CO[C@@H]1C=C2C3CC(C)(C)CC[C@]3(CO)[C@@H](O)C[C@@]2(C)[C@]2(C)CCC3[C@](C)(CCC(O[C@@H]4O[C@H](C)[C@H](O)[C@H](O[C@@H]5O[C@H](CO)[C@@H](O)[C@H](O)[C@H]5O)[C@H]4O)[C@@]3(C)CO)C12 (some centres undefined) , can you help?
Response: 8.7

Prompt: Sample CO[C@@H]1C=C2C3CC(C)(C)CC[C@]3(CO)[C@@H](O)C[C@@]2(C)[C@]2(C)CCC3C(C)(C)C(O[C@@H]4O[C@H](CO[C@@H]5O[C@H](CO)[C@@H](O)[C@H](O)[C@H]5O)[C@H](O[C@@H]5O[C@@H](C)[C@H](O)[C@@H](O)[C@H]5O)[C@H](O)[C@H]4O)CC[C@]3(C)[C@@H]12 (some centres undefined) — what was its inhibition at 0.3 µg/mL?
Response: 10.3

Prompt: For the molecule shown here, C[C@@H]1O[C@@H](O[C@@H]2[C@H](O)[C@@H](O)[C@H](OC3CC[C@@]4(C)C(CC[C@]5(C)[C@@H]4CC=C4C6CC(C)(C)CC[C@]6(CO)[C@@H](O)C[C@]45C)C3(C)C)O[C@@H]2CO[C@@H]2O[C@H](CO)[C@@H](O)[C@H](O)[C@H]2O)[C@H](O)[C@H](O)[C@H]1O (some centres undefined) , give the reported inhibition at 0.3 µg/mL.
Response: 3.1
